Molecular target: his-labeled human IL-13 (immunogen A) (human) (UniProt P35225)
Assay: cell-based or functional assay
What TARC (pg/mL), A549 cells + IL-13 5 ng/mL + TNFα; antibody at 13.3 nM was measured for each of the following?
One number for each entry, in pg/mL.

Reference set (2 entries):
binder="29D9H8 (lead antibody, mouse hybridoma) (antibody, V domains shown, Mouse monoclonal antibody purified from hybridoma supernatant on Protein G) VH: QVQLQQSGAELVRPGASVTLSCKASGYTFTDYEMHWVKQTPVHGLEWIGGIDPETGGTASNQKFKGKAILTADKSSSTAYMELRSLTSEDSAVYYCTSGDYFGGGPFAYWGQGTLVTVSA VL: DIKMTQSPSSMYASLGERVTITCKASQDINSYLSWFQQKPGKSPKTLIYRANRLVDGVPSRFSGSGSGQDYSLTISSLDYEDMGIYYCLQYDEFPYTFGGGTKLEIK" obs_value=53
binder="70F10A10 (lead antibody, mouse hybridoma) (antibody, V domains shown) VH: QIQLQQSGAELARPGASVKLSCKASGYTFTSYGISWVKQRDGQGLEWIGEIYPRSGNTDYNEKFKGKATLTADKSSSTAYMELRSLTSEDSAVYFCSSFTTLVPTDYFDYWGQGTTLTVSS VL: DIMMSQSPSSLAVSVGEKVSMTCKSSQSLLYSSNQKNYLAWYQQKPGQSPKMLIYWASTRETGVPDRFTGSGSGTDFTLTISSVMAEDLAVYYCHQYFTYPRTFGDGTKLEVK" obs_value=656

--- query ---
Challenge: # lookup: TARC (pg/mL), A549 cells + IL-13 5 ng/mL + TNFα; antibody at 13.3 nM of 28A2E11 (lead antibody, mouse hybridoma) (antibody, V domains shown, Mouse monoclonal antibody purified from hybridoma supernatant on Protein G) VH: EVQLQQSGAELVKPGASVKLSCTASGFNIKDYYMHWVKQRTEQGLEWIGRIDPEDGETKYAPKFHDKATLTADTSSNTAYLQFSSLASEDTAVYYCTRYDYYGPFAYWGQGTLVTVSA VL: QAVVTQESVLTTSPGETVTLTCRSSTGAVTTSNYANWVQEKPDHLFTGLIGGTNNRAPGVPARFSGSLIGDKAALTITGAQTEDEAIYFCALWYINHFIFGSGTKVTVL
Response given: 51
